TARGET OF ASSAY: S1P1 (Homo sapiens (Human))
Sequence (P21453 whole entry): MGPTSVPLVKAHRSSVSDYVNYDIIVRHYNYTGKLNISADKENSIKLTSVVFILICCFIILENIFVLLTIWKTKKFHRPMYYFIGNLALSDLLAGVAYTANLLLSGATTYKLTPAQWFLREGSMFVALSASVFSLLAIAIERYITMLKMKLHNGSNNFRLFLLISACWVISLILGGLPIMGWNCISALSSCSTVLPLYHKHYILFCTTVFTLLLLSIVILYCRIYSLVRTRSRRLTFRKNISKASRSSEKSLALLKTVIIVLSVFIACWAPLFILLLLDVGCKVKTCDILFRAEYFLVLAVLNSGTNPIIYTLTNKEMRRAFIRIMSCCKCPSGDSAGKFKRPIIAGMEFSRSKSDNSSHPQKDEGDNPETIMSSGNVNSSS
MEASUREMENT PROTOCOL: S1P1 agonist assay (Ec50 S1P1Ag)
Format: cell-based
CONDITIONS USED: unit μM/uM
PARAMETER: EC50

>>> recorded_result("Cc1cc(-c2noc(-c3ccc(C)c(C(F)(F)F)c3)n2)ccn1 [Compound 70]")
"7.08 µM"
>>> recorded_result("FC(F)(F)c1ccc(-c2noc(-c3ccnnc3)n2)cc1 [Compound 4]")
"7.8 µM"
>>> recorded_result("CCOc1ccc(-c2nc(-c3cccc(OC(F)(F)F)c3)no2)cc1OCC [Compound 205]")
"10 µM"
>>> recorded_result("COc1cc(-c2nc(-c3ccc(C(F)(F)F)cc3)no2)ccn1 [Compound 1]")
"466 µM"
>>> recorded_result("FC(F)(F)c1ccc(-c2noc(Cc3ccncc3)n2)cc1 [Compound 5]")
"4.1 µM"
>>> recorded_result("CC(C)COc1ccc(-c2nc(-c3ccncc3)no2)cc1 [Compound 9]")
"68.4 µM"

Lookup: Field request: EC50 | item: [O-][n+]1ccc(-c2nc(-c3ccc(C(F)(F)F)cc3)no2)cc1 [Compound 3]
Found: 5.9 µM

Lookup: One more compound: COc1cc(-c2nc(-c3ccc(S(N)(=O)=O)cc3)no2)ccn1 [Compound 19]
Found: 12 µM

Lookup: One more compound: FC(F)(F)c1ccc(-c2noc(-c3cccnc3)n2)cc1 [Compound 2]
Found: 6.5 µM

Lookup: One more compound: CC(C)(C)c1cc(-c2nc(-c3ccc(S(N)(=O)=O)cc3)no2)cc(C(C)(C)C)c1 [Compound 14]
Found: 12.3 µM

Lookup: One more compound: Fc1cc(-c2nc(-c3ccc(C(F)(F)F)cc3)no2)ccn1 [Compound 6]
Found: 4.1 µM

Lookup: One more compound: COc1ccc(-c2nc(-c3ccccc3)no2)cc1 [Compound 8]
Found: 73 µM

Lookup: One more compound: COc1cc(-c2noc(-c3cc4ccccc4s3)n2)ccc1C [Compound 47]
Found: 31.8 µM

Lookup: One more compound: CCOc1ccc(-c2nc(-c3ccc4[nH]cc(CN5CCCC5)c4c3)no2)cc1OCC [Compound 223]
Found: 10 µM

Lookup: One more compound: CCOc1cccc(-c2nc(-c3cccnc3)no2)c1 [Compound 67]
Found: 95.5 µM

----------
TARGET OF ASSAY: S1P1 (Homo sapiens (Human))
MEASUREMENT PROTOCOL: S1P1 agonist assay (Ec50 S1P1Ag)
Type: cell-based
pEC50: −log10 of the molar value.
Response key: class 1 means pEC50 >= 7; class 0 means pEC50 < 7.

The following compounds have reported results that may help.
>>> class_name("Cc1ccc(-c2nc(-c3ccnc(N)c3)no2)cc1C(F)(F)F [Compound 69]")
"class 0"
>>> class_name("CCOc1ccc(-c2nc(-c3cccc4c3CCC4NCCO)no2)cc1OCC (stereo not drawn) [compound 236]")
"class 1"
>>> class_name("CCOc1ccc(-c2nc(-c3cncc(C)c3)no2)cc1OCC [Compound 58]")
"class 1"
>>> class_name("CCOc1ccc(-c2nc(-c3ccc4[nH]cc(CN(C)CCO)c4c3)no2)cc1OCC [Compound 240]")
"class 0"
>>> class_name("CCOc1ccc(-c2nc(-c3ccc(CCN4CCCC4)cc3)no2)cc1OCC [Compound 191]")
"class 1"
>>> class_name("CCOc1ccc(-c2nc(-c3cccc4c3CCC4O)no2)cc1OCC (stereo not drawn) [Compound 215]")
"class 1"
>>> class_name("CCOc1ccc(-c2nc(-c3ccnc(CNCCN(CC)CC)c3)no2)cc1OCC [Compound 226]")
"class 1"

Now let's try a different one.
Lookup: Exam item: decide whether the reported pEC50 for CCOc1cccc(-c2nc(-c3cncc(C)c3)no2)c1 [Compound 66] is at least 7.
Found: class 0

Value source: patent US10544136B2
